Tested on: barnyardgrass
Protocol Summary: Control of aquatic plant species (paddy water)
Assay type: in vivo, Echinochloa crusgalli
Test Parameters: Echinochloa crus-galli, 216 h; 1.0 Kg/Ha, nine days; read-out: Percent control
Quantity Measured: pest or weed control at 1000 g/ha (%)
Use % as the unit, but write only the number.

Req: Can you share its pest or weed control at 1000 g/ha? I mean this molecule: CSc1ccccc1NS(=O)(=O)c1nc2nc(C)cc(C)n2n1
Resp: 99

Req: Then what about the molecule Cc1cc(C)n2nc(S(=O)(=O)Nc3ccccc3F)nc2n1 ?
Resp: 99

Req: Then what about the molecule CCc1cccc(CC)c1NS(=O)(=O)c1nc2nc(C)cc(C)n2n1 ?
Resp: 97

Req: Then what about the molecule Cc1cc(C)n2nc(S(=O)(=O)Nc3ccccc3Br)nc2n1 ?
Resp: 99

Req: Then what about the molecule Cc1cc(C)n2nc(S(=O)(=O)Nc3ccccc3Cl)nc2n1 ?
Resp: 99

Req: Then what about the molecule Cc1ccnc2nc(S(=O)(=O)Nc3c(Cl)cccc3Cl)nn12 ?
Resp: 97

Req: Then what about the molecule Cc1cc(C)n2nc(S(=O)(=O)Nc3c(F)cccc3C(=O)OC(C)C)nc2n1 ?
Resp: 97

Req: Then what about the molecule COC(=O)c1ccccc1NS(=O)(=O)c1nc2nc(C)cc(C)n2n1 ?
Resp: 90

Req: Then what about the molecule O=S(=O)(Nc1c(Cl)cccc1Cl)c1nc2ncc(Cl)cn2n1 ?
Resp: 95

Req: Then what about the molecule Cc1cc(C)n2nc(S(=O)(=O)Nc3ccccc3I)nc2n1 ?
Resp: 99

Req: Then what about the molecule Cc1cc(C)n2nc(S(=O)(=O)Nc3ccccc3[N+](=O)[O-])nc2n1 ?
Resp: 97
